These data points were gathered from a polymer gas permeability compilation.

parameterMeasured: N2 permeability (Barrer)

compound: *c1ccc(-c2ccc(-n3c(=O)c4cc5oc6cc7c(cc6oc5cc4c3=O)C3(CC(C)(C)c4cc5oc6cc8c(=O)n(*)c(=O)c8cc6oc5cc43)CC7(C)C)cc2C(F)(F)F)c(C(F)(F)F)c1 (repeat unit)
recordedNumber: 16

compound: *c1ccc(-c2cc(C)c(-c3ccc(*)cc3C)cc2C)c(C)c1 (repeat unit)
recordedNumber: 1.4

compound: *C(C(=O)OC(C)C)C(*)C(=O)OC(C)CC(C)C (repeat unit)
recordedNumber: 14

compound: *c1c(C)cc(C)c(N2C(=O)c3ccc(S(=O)(=O)c4ccc5c(c4)C(=O)N(*)C5=O)cc3C2=O)c1C (repeat unit)
recordedNumber: 1.02

compound: *C(=C(*)c1ccc2c(c1)C(C)(C)c1ccccc1-2)c1ccc(C(C)(C)C)cc1 (repeat unit)
recordedNumber: 2500

1. *c1cccc2c(-n3c(=O)c4cc5oc6cc7c(cc6oc5cc4c3=O)C3(CC(C)(C)c4cc5oc6cc8c(=O)n(*)c(=O)c8cc6oc5cc43)CC7(C)C)cccc12 (repeat unit)
2. *c1c(C)cc(-c2cc(C)c(N3C(=O)c4cc5c(cc4C3=O)C3(C)c4ccccc4C5(C)c4cc5c(cc43)C(=O)N(*)C5=O)c3ccccc23)c2ccccc12 (repeat unit)
3. *Oc1ccc(C(C)(C)c2ccc(Oc3ccc(S(=O)(=O)c4ccc(*)c5ccccc45)cc3)cc2)cc1 (repeat unit)
### Prompt Ascending by N2 permeability, please: list the compounds accordingly. To answer, arrange all of the labels according to the requested order.
### Response 3, 1, 2

----------
parameterMeasured: H2 permeability (Barrer)

I. *c1ccc2c(c1)C(=O)n1c-2nc2ccc(-c3ccc4c(c3)nc3n4C(=O)c4ccc(C(*)(C(F)(F)F)C(F)(F)F)cc4-3)cc21 (repeat unit)
II. *c1c(C)cc(-c2cc(C)c(N3C(=O)c4cc5c(cc4C3=O)C3(C)c4ccccc4C5(C)c4cc5c(cc43)C(=O)N(*)C5=O)c3ccccc23)c2ccccc12 (repeat unit)
III. *Oc1ccc(S(=O)(=O)c2ccc(Oc3ccc(C(C)(C)c4ccc(*)cc4)cc3)cc2)cc1 (repeat unit)
IV. *C(=C(*)c1ccc(-c2ccc([Si](C)(C)C)cc2)cc1)c1ccccc1 (repeat unit)
### Prompt List from greatest to least H2 permeability. To answer, arrange all of the labels according to the requested order.
### Response II, IV, I, III
(II: 2740 Barrer, IV: 810 Barrer, I: 74.4 Barrer, III: 14 Barrer)

I. *c1ccc(Oc2ccc(C(c3ccc(Oc4ccc(N5C(=O)c6ccc(C(c7ccc8c(c7)C(=O)N(*)C8=O)(C(F)(F)F)C(F)(F)F)cc6C5=O)cc4C(F)(F)F)cc3)(C(F)(F)F)C(F)(F)F)cc2)c(C(F)(F)F)c1 (repeat unit)
II. *c1ccc(-c2nc3cc(-c4ccc5[nH]c(*)nc5c4)ccc3[nH]2)c(Br)c1 (repeat unit)
III. *C(=C(*)c1ccc2c(c1)C(C)(C)c1ccccc1-2)c1ccc(F)cc1 (repeat unit)
IV. *c1ccc(Oc2ccc3ccccc3c2-c2c(Oc3ccc(N4C(=O)c5ccc(C(c6ccc7c(c6)C(=O)N(*)C7=O)(C(F)(F)F)C(F)(F)F)cc5C4=O)cc3C)ccc3ccccc23)c(C)c1 (repeat unit)
### Prompt Put the items in sequence by H2 permeability, from largest down. To answer, arrange all of the labels according to the requested order.
### Response III, I, IV, II
(III: 11000 Barrer, I: 55.4 Barrer, IV: 26.2 Barrer, II: 0.38 Barrer)

1. *Oc1cc2c(cc1O*)C1(CC2(C)C)CC(C)(C)c2cc3c(cc21)Oc1c(C#N)c(*)c(*)c(C(=O)O)c1O3 (repeat unit)
2. *c1ccc2c(-c3c(O)ccc4cc(N5C(=O)c6ccc(C(c7ccc8c(c7)C(=O)N(*)C8=O)(C(F)(F)F)C(F)(F)F)cc6C5=O)ccc34)c(O)ccc2c1 (repeat unit)
3. *C(=C(*)c1ccc2c(c1)C(C)(C)c1ccccc1-2)c1ccc(C(C)(C)C)cc1 (repeat unit)
4. *=CC1CC(C=*)C2C(=O)N(c3ccccc3)C(=O)C12 (repeat unit)
### Prompt Ascending by H2 permeability, please: list the compounds accordingly. To answer, arrange all of the labels according to the requested order.
### Response 2, 4, 1, 3
(2: 5.95 Barrer, 4: 11 Barrer, 1: 1540 Barrer, 3: 6300 Barrer)

----------
parameterMeasured: N2 permeability (Barrer)

compound: *Oc1ccc(C(C)(C)c2ccc(OC(=O)c3cc(C(*)=O)cc(C(C)(C)C)c3)c(C(C)C)c2)cc1C(C)C (repeat unit)
N2 permeability, Barrer: 1.08

A. *Oc1cc2c(cc1O*)C(C)(C)CC1(CC(C)(C)c3cc4c(cc3O1)Oc1c(C#N)c(*)c(*)c(C#N)c1O4)O2 (repeat unit)
B. *OC(=O)c1cccc(C(=O)Oc2ccc(C(C)(C)c3ccc(O*)c(C)c3)cc2C)c1 (repeat unit)
C. *c1c(C)c(C)c(N2C(=O)c3ccc(C(=O)c4ccc5c(c4)C(=O)N(*)C5=O)cc3C2=O)c(C)c1C (repeat unit)
### Prompt Ascending by N2 permeability, please: list the compounds accordingly. To answer, arrange all of the labels according to the requested order.
### Response B, C, A

P. *Oc1cc2c(cc1O*)C1(c3cc(C(C)(C)C)ccc3-2)c2cc(C(C)(C)C)ccc2-c2cc3c(cc21)Oc1c(C#N)c(*)c(*)c(C#N)c1O3 (repeat unit)
Q. *c1ccc(Oc2ccc(C3(c4ccc(Oc5ccc(N6C(=O)c7ccc(C(c8ccc9c(c8)C(=O)N(*)C9=O)(C(F)(F)F)C(F)(F)F)cc7C6=O)c(C)c5)cc4)c4ccccc4-c4ccccc43)cc2)cc1C (repeat unit)
### Prompt Among P and Q , which shows a numerically higher N2 permeability result? State your choice using its label.
### Response P

----------
parameterMeasured: N2 permeability (Barrer)

The following compounds have reported results that may help.
compound: *c1ccc(Cc2ccc(N3C(=O)c4ccc(C(c5ccc6c(c5)C(=O)N(*)C6=O)(C(F)(F)F)C(F)(F)F)cc4C3=O)cc2)cc1 (repeat unit)
N2 permeability [Barrer]: 0.686
//
compound: *Nc1c(C)cc(Cc2cc(C)c(NC(=O)c3ccc(Oc4cc(C(C)(C)C)c(Oc5ccc(C(*)=O)cc5)cc4C(C)(C)C)cc3)c(C(C)C)c2)cc1C(C)C (repeat unit)
N2 permeability [Barrer]: 1.18
//
compound: *Nc1ccc(S(=O)(=O)c2ccc(NC(=O)c3cc(C(*)=O)cc(-c4ccccc4)c3)cc2)cc1 (repeat unit)
N2 permeability [Barrer]: 0.13
//
compound: *CC(*)c1ccc(C(C)(C)C)cc1 (repeat unit)
N2 permeability [Barrer]: 8.4
//
compound: *OCC(*)CCl (repeat unit)
N2 permeability [Barrer]: 0.24

1. *c1ccc(C2(c3ccc(N4C(=O)c5ccc(C(c6ccc7c(c6)C(=O)N(*)C7=O)(C(F)(F)F)C(F)(F)F)cc5C4=O)cc3)c3ccccc3-c3ccccc32)cc1 (repeat unit)
2. *C(=C(*)c1ccc2c(c1)C(C)(C)CC2(C)C)c1ccc(Br)cc1 (repeat unit)
### Prompt Of 1 and 2 , whose reported N2 permeability is numerically smaller? State your choice using its label.
### Response 1
(1: 3.3 Barrer, 2: 9200 Barrer)

----------
parameterMeasured: O2 permeability (Barrer)

The following compounds have reported results that may help.
compound: *Oc1ccc(S(=O)(=O)c2ccc(Oc3ccc4ccc(*)cc4c3)cc2)cc1 (repeat unit)
recordedNumber: 0.5
--
compound: *Oc1ccc(C(C)(C)c2ccc(OC(=O)c3cccc(C(*)=O)c3)cc2)cc1 (repeat unit)
recordedNumber: 1.45
--
compound: *c1cc(C)c(N2C(=O)c3ccc(C(c4ccc5c(c4)C(=O)N(*)C5=O)(C(F)(F)F)C(F)(F)F)cc3C2=O)c(C)c1 (repeat unit)
recordedNumber: 3.53

A. *Oc1ccc(-c2nn(-c3ccc(S(=O)(=O)c4ccc(*)cc4)cc3)c(=O)c3ccccc23)cc1 (repeat unit)
B. *c1ccc(-c2ccc(N3C(=O)c4ccc([Si](C)(C)c5ccc6c(c5)C(=O)N(*)C6=O)cc4C3=O)c(C)c2)cc1C (repeat unit)
C. *c1ccc(Oc2ccc(C(c3ccc(Oc4ccc(-n5c(=O)c6cc7c(=O)n(*)c(=O)c7cc6c5=O)cc4C(F)(F)F)cc3)(C(F)(F)F)C(F)(F)F)cc2)c(C(F)(F)F)c1 (repeat unit)
### Prompt Ascending by O2 permeability, please: list the compounds accordingly. To answer, arrange all of the labels according to the requested order.
### Response A, B, C
(A: 0.15 Barrer, B: 0.663 Barrer, C: 7.06 Barrer)

----------
parameterMeasured: O2 permeability (Barrer)

The following compounds have reported results that may help.
compound: *c1ccccc1Oc1ccc2ccccc2c1-c1c(Oc2ccccc2N2C(=O)c3ccc(C(c4ccc5c(c4)C(=O)N(*)C5=O)(C(F)(F)F)C(F)(F)F)cc3C2=O)ccc2ccccc12 (repeat unit)
parameterMeasured: O2 permeability
readoutUnits: Barrer
recordedNumber: 0.99
--
compound: *c1cccc(-c2nnc(*)n2-c2ccccc2)c1 (repeat unit)
parameterMeasured: O2 permeability
readoutUnits: Barrer
recordedNumber: 0.52
--
compound: *c1ccc2c(c1)-c1nc3ccc(-c4ccc5c(c4)nc4n5C(=O)c5cc(C(c6ccc(-c7nc8cc(C(c9ccc%10oc(-c%11ccc(C(*)(C(F)(F)F)C(F)(F)F)cc%11)nc%10c9)(C(F)(F)F)C(F)(F)F)ccc8o7)cc6)(C(F)(F)F)C(F)(F)F)ccc5-4)cc3n1C2=O (repeat unit)
parameterMeasured: O2 permeability
readoutUnits: Barrer
recordedNumber: 421

P. *c1ccc(Oc2ccc3ccccc3c2-c2c(Oc3ccc(N4C(=O)c5ccc(C(c6ccc7c(c6)C(=O)N(*)C7=O)(C(F)(F)F)C(F)(F)F)cc5C4=O)cc3C(F)(F)F)ccc3ccccc23)c(C(F)(F)F)c1 (repeat unit)
Q. *c1ccc(-c2ccc(N3C(=O)c4ccc(-c5ccc6c(c5)C(=O)N(*)C6=O)cc4C3=O)c(O)c2)cc1O (repeat unit)
### Prompt Among P and Q , which shows a numerically higher O2 permeability result? State your choice using its label.
### Response P
